Let's look at some molecules and their measured IC50.
- Tested on: KB cells
- assayMethodText: Cytotoxicity, sulforhodamine B staining, KB
- Format: cell-based
- details: Homo sapiens, read-out: IC50 KB

| molecule | measurementUnit | resultQualifier | IC50 |
| --- | --- | --- | --- |
| Nc1nc(N)c(CNCCc2ccc(Cl)c(Cl)c2)c(C2CC2)n1 [7 n] | µM | = | 23 |
| Nc1nc(N)c(CNCCc2ccc(Cl)cc2Cl)c(C2CCCCC2)n1 [7 x] | µM | = | 62 |
| COc1ccccc1CCNCc1c(N)nc(N)nc1C1CCCCC1 [7 o] | µM | = | 22 |
| Nc1nc(N)c(CNCCc2ccc(Cl)cc2)c(C2CC2)n1 [7 l] | µM | = | 70 |
| CC1(C)N=C(N)N=C(N)N1c1ccc(Cl)cc1 [CYC, cycloguanil, reference compound] | µM | > | 100 |
